# Lookup of reported %Inh keyed by entry
test system: MEK1; construct: gene MAP2K1; conditions: concentration: 1 μM, replicates: in singlicate; n = 1;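 also: KINOMEscan kinase panel screen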
measurement_label: %Inh (%)

>>> result("COc1ccc(Nc2nccc(N3CCC(NC(=O)Nc4cccc(OC)c4)C3)n2)cc1 (stereo not drawn) [GSK1379742]")
0
>>> result("CNC(=O)c1ccccc1Nc1nc(Nc2ccc(N3CCOCC3)cc2)ncc1Cl.Cl [GSK1576028]")
88
>>> result("COC(=O)Nc1nc2cc(Oc3ccc(NC(=O)Nc4cc(C(F)(F)F)ccc4F)cn3)ccc2[nH]1.Cl.Cl [GW681170]")
0
>>> result("O=C(O)C(F)(F)F.O=C(O)C(F)(F)F.O=c1[nH]ccc2nc(N[C@@H]3CCCNC3)nc(Nc3ccc(S(=O)(=O)N4CCOCC4)cc3)c12 [GSK2177277]")
96.6
>>> result("COc1cc2c(cc1OCCN1CCNCC1)ncc1c3ccc(C#N)cc3[nH]c21")
34
>>> result("Nc1ncc(-c2ccc3nccc(-c4ccncc4)c3c2)cc1S(=O)(=O)N1CCOCC1 [GSK1627798]")
0
>>> result("COc1cccc(C(=O)Nc2cccc(Oc3ccc4nc(NC(=O)C5CC5)cn4n3)c2)c1")
28
>>> result("CC(C)(C)c1ccc2nccc(Nc3cccc(O)c3)c2c1 [GW856795]")
46
>>> result("Cn1cc(-c2[nH]c3cc(NC(=O)[C@H](N)C4CCCCC4)cc4c3c2C=NNC4=O)cn1")
65
>>> result("CCn1c(-c2nonc2N)nc2c(C#CC(C)(C)O)ncc(OCCCCN)c21.O=C(O)C(F)(F)F.O=C(O)C(F)(F)F [GSK507274]")
0
>>> result("Clc1ccc(-c2nn3ncccc3c2-c2ccnc(Nc3ccc4c(c3)OCCO4)n2)cc1 [GW829116]")
6
>>> result("c1ccc(Oc2ccc(Nc3ccnc4cc(-c5ccc(CNCCN6CCOCC6)o5)ccc34)cc2)nc1 [GW567145]")
90.8
>>> result("COc1cccc(C2=C(Nc3ccc(Cl)c(C(=O)O)c3)C(=O)NC2=O)c1 [SB-390769]")
0
>>> result("Nc1ncnc2c1nc(-c1ccccc1)n2-c1ccccc1 [SKF-97293]")
15
>>> result("CCS(=O)(=O)c1ccc(OC)c(Nc2nccc(-c3c(-c4cccc(NC(=O)c5c(F)cccc5F)c4)nn4ncccc34)n2)c1 [GSK326180]")
31
>>> result("Cl.c1ccc(-c2ccc3c(Nc4ccc5[nH]ccc5c4)ccnc3c2)nc1 [GW440138]")
0
>>> result("Cl.Cl.NCC(NCc1ccc(-c2ccnc3[nH]ccc23)s1)c1ccccc1 (stereo not drawn) [GSK1321565]")
0
>>> result("Cc1cccc(NC(=O)Nc2ccc(Oc3ncnc4ccn(C)c34)cc2)c1")
0
>>> result("O=c1[nH]cc(-c2ccc(N3CCOCC3)cc2)c2sc(-c3cn[nH]c3)cc12 [GSK2276055]")
0
>>> result("NCCCC(NC(=O)c1cc(Br)c(-c2ccnc3[nH]ccc23)s1)c1ccccc1.O=C(O)C(F)(F)F.O=C(O)C(F)(F)F (stereo not drawn) [GSK1287544]")
0
>>> result("CN(c1ccc(NC(=O)Nc2cc(C(F)(F)F)ccc2F)cc1)c1ccnc(Nc2ccc(S(N)(=O)=O)cc2)n1 [GW809893]")
0
>>> result("Nc1ncc(-c2cccnc2)c2scc(-c3ccc4c(c3)CCN4C(=O)Cc3ccccc3)c12 [GSK683281]")
0
>>> result("Cl.c1ccc(-c2ccc3c(Nc4ccc5[nH]ncc5c4)ccnc3c2)nc1 [GW440137]")
0
>>> result("Cc1cccc(Nc2nc(N[C@H]3CCNC3)ncc2C(N)=O)c1.Cl [GSK2197149]")
31
>>> result("Cc1ccc(C)c(NC(=O)NC2CCN(c3ccnc(Nc4ccc(F)cc4)n3)C2)c1 (stereo not drawn) [GSK1379720]")
0
>>> result("O=C(Nc1n[nH]c2cc(-c3ccoc3)ccc12)C1CC1 [SB-738481]")
2
>>> result("c1ccc(-c2cnc3nccnn23)cc1 [AH20685]")
0
>>> result("COCCOCCOc1cc2ncc3c4ccc(C#N)cc4[nH]c3c2cc1OC")
48
>>> result("O=C(NC1CCN(c2ccnc(Nc3ccc(F)cc3)n2)C1)c1cc2ccccc2s1 (stereo not drawn) [GSK1379716]")
0
>>> result("Cn1cc(-c2ccc3c(c2)CCN3C(=O)Cc2cccc(F)c2)c2c(N)ncnc21 [GSK2603358]")
15
>>> result("COc1cccc(NC(=O)NC2CCN(c3ccnc(Nc4cc(OC)c(OC)c(OC)c4)n3)C2)c1 (stereo not drawn) [GSK1379763]")
0
>>> result("Fc1ccc(-c2ncn(C3CCNCC3)c2-c2ccnc(Oc3ccc(-c4ccccc4)cc3)n2)cc1 [SB-245391]")
15
>>> result("CC(=O)Nc1nc2cnc(Nc3cc(NC(=O)c4cccc(C5(C#N)CC5)c4Cl)ccc3C)nc2s1")
0
